Experiment: Toxicity against brine shrimp
Format: organism-based
Conditions: artemia, in vivo
The entries below are paired with their reported LC50.

Worked set:
O=C1C[C@@H]2O[C@@H]([C@H](O)c3ccccc3)[C@@H](O)[C@@H]2O1 (relative stereo) | 475 µg/mL
O=C1C[C@H]2C[C@@H](O1)[C@H](O)[C@H](c1ccccc1)O2 | > 500 µg/mL

Qu. Request the reported LC50 associated with O=C1C=CC[C@H]([C@H](O)[C@H](O)c2ccccc2)O1 [GONIODIOL]
Ans. > 500 µg/mL

---

The entries below are paired with their reported EC50.
Test system: MCF7
Experiment: Cytotoxicity against human MCF7 cells
Assay type: functional
Conditions: read-out: ED50 (the source's name)
Enter your answer as a number in µg/mL; do not include the unit.

Worked set:
COc1cccc2c1C(=O)c1c(O)c3c(c(O)c1C2=O)C[C@@](O)(C(=O)CO)C[C@@H]3O[C@H]1C[C@H](N)[C@H](O)[C@H](C)O1 [DOXORUBICIN] | 0.0177
O=C1C=CC[C@H]([C@H](O)[C@H](O)c2ccccc2)O1 [GONIODIOL] | 8.27
O=C1C[C@@H]2O[C@@H]([C@H](O)c3ccccc3)[C@@H](O)[C@@H]2O1 (relative stereo) | 49.1

Qu. Request the reported EC50 associated with O=C1C[C@H]2C[C@@H](O1)[C@H](O)[C@H](c1ccccc1)O2
Ans. 25.4
